All figures here come from PubChem BioAssay AID1259334.

Test system: B cell line, TNFa signaling counterscreen reporter
method-summary: TNFa signaling inhibitors in B cell line, dose response, counter-screen (AID 1259334);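 also: cells stimulated with TNFa after compound preincubation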
Active and inactive are the calls of the source. Rule as the data show it: active = AC50 below about 11 µM.
Outcome codes: t for active, f for inactive

{"compound": "Cc1ccc(S(=O)(=O)NC(C(=O)Oc2cc3oc(=O)cc(C)c3cc2Cl)C(C)C)cc1 (stereo unspecified)", "test-target": "B cell line, TNFa signaling counterscreen reporter", "assigned-label": "t"}
{"compound": "O=C(O)c1ccc(Nc2nc3c(s2)CCCC3)cc1", "test-target": "B cell line, TNFa signaling counterscreen reporter", "assigned-label": "t"}
{"compound": "CCC(C)[C@H]1O[C@]2(CC[C@@H]1C)C[C@@H]1C[C@@H](C/C=C(\\C)[C@@H](OC3C[C@H](OC)C(O[C@H]4C[C@H](OC)[C@@H](O)[C@H](C)O4)[C@H](C)O3)[C@@H](C)/C=C/C=C3\\CO[C@@H]4[C@H](O)C(C)=C[C@@H](C(=O)O1)[C@]34O)O2 (stereo partly specified)", "test-target": "B cell line, TNFa signaling counterscreen reporter", "assigned-label": "f"}
{"compound": "Cc1ccc(N2CC(C(=O)Nc3nccs3)CC2=O)cc1Cl (stereo unspecified)", "test-target": "B cell line, TNFa signaling counterscreen reporter", "assigned-label": "t"}
{"compound": "C[C@H](CO)N1C[C@H](C)[C@H](CN(C)S(=O)(=O)c2ccc([N+](=O)[O-])cc2)OCc2ccccc2-c2c(n(C)c3ccccc23)C1=O", "test-target": "B cell line, TNFa signaling counterscreen reporter", "assigned-label": "t"}
{"compound": "Nc1ccc(-c2cccc3c(=O)cc(N4CCOCC4)oc23)cc1", "test-target": "B cell line, TNFa signaling counterscreen reporter", "assigned-label": "t"}
{"compound": "CN(C)C(=S)SSC(=S)N(C)C", "test-target": "B cell line, TNFa signaling counterscreen reporter", "assigned-label": "t"}
{"compound": "COc1cccc(-c2cc(=O)c3cc(OC)ccc3o2)c1", "test-target": "B cell line, TNFa signaling counterscreen reporter", "assigned-label": "t"}
{"compound": "COc1ccc(Cl)cc1NC(=O)Nc1cc(C)nc2ccccc12", "test-target": "B cell line, TNFa signaling counterscreen reporter", "assigned-label": "f"}
{"compound": "O=C(NC(=S)/C(=C1\\CCCCCN1)[N+](=O)[O-])c1ccccc1", "test-target": "B cell line, TNFa signaling counterscreen reporter", "assigned-label": "t"}
{"compound": "N#C[C@@H]1[C@H](c2ccc(C#CC3CCCCC3)cc2)[C@H](CO)N1C(=O)Nc1ccc(F)cc1", "test-target": "B cell line, TNFa signaling counterscreen reporter", "assigned-label": "f"}
{"compound": "C[C@@H]1CN([C@H](C)CO)C(=O)c2c(c3ccccc3n2C)-c2ccccc2CO[C@@H]1CN(C)C(=O)c1cc(Cl)cc(Cl)c1", "test-target": "B cell line, TNFa signaling counterscreen reporter", "assigned-label": "t"}
{"compound": "CC1=C(O)C(=O)C=C2C1=CC=C1C2(C)CCC2(C)C3CC(C)(C(=O)O)CCC3(C)CCC12C (stereo unspecified)", "test-target": "B cell line, TNFa signaling counterscreen reporter", "assigned-label": "t"}
{"compound": "C=C1C(=O)OC2C=C(CO)C3OC3C3OC3(C)CC(OC(=O)/C(=C/C)COC(C)=O)C12 (stereo unspecified)", "test-target": "B cell line, TNFa signaling counterscreen reporter", "assigned-label": "t"}
{"compound": "N#CC(C#N)=NNc1ccc(OC(F)(F)F)cc1", "test-target": "B cell line, TNFa signaling counterscreen reporter", "assigned-label": "t"}
{"compound": "CC1CCOC(=O)C=CC=CC(=O)OC2CC3OC4C5OC5(C)C(O)CC4(COC(=O)C1O)C2(C)C31CO1 (stereo unspecified)", "test-target": "B cell line, TNFa signaling counterscreen reporter", "assigned-label": "t"}
{"compound": "CC(C)C1CC(N(C)C)=CC(=S)N1 (stereo unspecified)", "test-target": "B cell line, TNFa signaling counterscreen reporter", "assigned-label": "t"}
{"compound": "CC[C@@]1(O)C(=O)OCc2c1cc1n(c2=O)Cc2cc3cc(O)ccc3nc2-1", "test-target": "B cell line, TNFa signaling counterscreen reporter", "assigned-label": "t"}
{"compound": "C=C1CC(Cn2cc(Br)c(=O)[nH]c2=O)(c2ccc(-c3ccccc3)cc2)OC1=O (stereo unspecified)", "test-target": "B cell line, TNFa signaling counterscreen reporter", "assigned-label": "t"}
{"compound": "Clc1ccc(COC(Cn2ccnc2)c2ccc(Cl)cc2Cl)c(Cl)c1 (stereo unspecified)", "test-target": "B cell line, TNFa signaling counterscreen reporter", "assigned-label": "t"}
{"compound": "Oc1c(Cl)cc(Cl)c(Cl)c1Cc1c(O)c(Cl)cc(Cl)c1Cl", "test-target": "B cell line, TNFa signaling counterscreen reporter", "assigned-label": "t"}
{"compound": "CC(=O)OC(C)(C)/C=C/C(=O)C(C)(O)C1C(O)CC2(C)C3CC=C4C(CC(O)C(=O)C4(C)C)C3(C)C(=O)CC12C (stereo unspecified)", "test-target": "B cell line, TNFa signaling counterscreen reporter", "assigned-label": "t"}
{"compound": "COc1ccc(-c2cc(-c3ccccc3)c(C#N)c(S(C)=O)n2)cc1 (stereo unspecified)", "test-target": "B cell line, TNFa signaling counterscreen reporter", "assigned-label": "t"}
{"compound": "CC[C@@]1(O)C(=O)OCc2c1cc1n(c2=O)Cc2cc3ccccc3nc2-1", "test-target": "B cell line, TNFa signaling counterscreen reporter", "assigned-label": "t"}
{"compound": "NC(c1csc(NC(=O)Nc2cccc(Cl)c2)n1)c1ccccc1Cl (stereo unspecified)", "test-target": "B cell line, TNFa signaling counterscreen reporter", "assigned-label": "t"}
{"compound": "COC(=O)C1=C(C(=O)OC)C2OC1c1cc3ccccc3cc12", "test-target": "B cell line, TNFa signaling counterscreen reporter", "assigned-label": "t"}
{"compound": "COc1ccc(/C=N/Nc2ncccc2[N+](=O)[O-])c(OC)c1", "test-target": "B cell line, TNFa signaling counterscreen reporter", "assigned-label": "t"}
{"compound": "CC1CCCC=CC2CC(OC(=O)CN(C)C)CC2C(O)C=CC(=O)O1 (stereo unspecified)", "test-target": "B cell line, TNFa signaling counterscreen reporter", "assigned-label": "t"}
{"compound": "N#Cc1cccc(-c2ccc(C3[C@H]4CNC[C@@H]3N4Cc3ccc4c(c3)OCO4)cc2)c1 (stereo partly specified)", "test-target": "B cell line, TNFa signaling counterscreen reporter", "assigned-label": "t"}
{"compound": "C[C@@H]1CN([C@H](C)CO)C(=O)c2cc(NS(=O)(=O)c3cccs3)ccc2O[C@@H](C)CCCCO[C@H]1CN(C)Cc1ccc(Cl)c(Cl)c1", "test-target": "B cell line, TNFa signaling counterscreen reporter", "assigned-label": "f"}
{"compound": "COc1ccc(C#Cc2ccc([C@H]3[C@@H](CO)N4CCCCN(S(=O)(=O)c5cn(C)cn5)C[C@H]34)cc2)cc1", "test-target": "B cell line, TNFa signaling counterscreen reporter", "assigned-label": "t"}
